- target-desc: T1, ZFP SBS#279 (synthetic)
- T1 chain: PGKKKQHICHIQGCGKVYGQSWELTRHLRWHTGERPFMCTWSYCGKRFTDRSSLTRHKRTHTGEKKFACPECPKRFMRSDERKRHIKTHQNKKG
- procedure-summary: EMSA
- measurement-conditions: tags: MBP fusion
recorded-metric: pKd
On this scale, pKd is minus log10 of a concentration expressed in M (mol/L).

Sure, the documented pKd for GCGGCCGCG (dsDNA) DNA 1: GCGGCCGCG DNA 2: CGCGGCCGC is 6.59
